Test: total protein half-life in vivo (active degradation + dilution); higher = more stable protein
Conditions: wild type E. coli NCM3722; growth: N-lim chemostat; doubling time 6 h
For each record, write down the corresponding total protein half-life in vivo.
// units = h; emit number, no label

Which total protein half-life in vivo value belongs to MRIFVYGSLRHKQGNSHWMTNAQLLGDFSIDNYQLYSLGHYPGAVPGNGTVHGEVYRIDNATLAELDALRTRGGEYARQLIQTPYGSAWMYVYQRPVDGLKLIESGDWLDRDK [P0AE48] ? 4.49

Which total protein half-life in vivo value belongs to "MTTYDRNRNAITTGSRVMVSGTGHTGKILSIDTEGLTAEQIRRGKTVVVEGCEEKLAPLDLIRLGMN" ? 4.08

Which total protein half-life in vivo value belongs to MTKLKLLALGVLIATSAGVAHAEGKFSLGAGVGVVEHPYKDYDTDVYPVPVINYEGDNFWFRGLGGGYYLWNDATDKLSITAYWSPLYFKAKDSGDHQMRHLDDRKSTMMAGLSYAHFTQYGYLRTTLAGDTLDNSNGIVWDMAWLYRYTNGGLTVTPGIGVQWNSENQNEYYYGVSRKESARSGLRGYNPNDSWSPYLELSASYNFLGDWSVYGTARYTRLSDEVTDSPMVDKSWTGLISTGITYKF [P0A908] ? 6.35

Which total protein half-life in vivo value belongs to MENNEIQSVLMNALSLQEVHVSGDGSHFQVIAVGELFDGMSRVKKQQTVYGPLMEYIADNRIHAVSIKAYTPAEWARDRKLNGF [P0A9W6] ? 4.09

Which total protein half-life in vivo value belongs to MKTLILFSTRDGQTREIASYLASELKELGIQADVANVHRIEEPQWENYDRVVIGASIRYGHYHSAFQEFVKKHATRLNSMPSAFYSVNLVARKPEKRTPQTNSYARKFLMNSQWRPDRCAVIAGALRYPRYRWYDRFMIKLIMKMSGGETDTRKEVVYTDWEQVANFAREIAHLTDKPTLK [P0ACB4] ? 5.45

Which total protein half-life in vivo value belongs to MVKLAFPRELRLLTPSQFTFVFQQPQRAGTPQITILGRLNSLGHPRIGLTVAKKNVRRAHERNRIKRLTRESFRLRQHELPAMDFVVVAKKGVADLDNRALSEALEKLWRRHCRLARGS [P0A7Y8] ? 3.63

Which total protein half-life in vivo value belongs to "MKHDHFVVQSPDKPAQQLLLLFHGVGDNPVAMGEIGNWFAPLFPDALVVSVGGAEPSGNPAGRQWFSVQGITEDNRQARVDAIMPTFIETVRYWQKQSGVGANATALIGFSQGAIMVLESIKAEPGLASRVIAFNGRYASLPETASTATTIHLIHGGEDPVIDLAHAVAAQEALISAGGDVTLDIVEDLGHAIDNRSMQFALDHLRYTIPKHYFDEALSGGKPGDDDVIEMM" ? 2.93

Which total protein half-life in vivo value belongs to MARIIVVTSGKGGVGKTTSSAAIATGLAQKGKKTVVIDFDIGLRNLDLIMGCERRVVYDFVNVIQGDATLNQALIKDKRTENLYILPASQTRDKDALTREGVAKVLDDLKAMDFEFIVCDSPAGIETGALMALYFADEAIITTNPEVSSVRDSDRILGILASKSRRAENGEEPIKEHLLLTRYNPGRVSRGDMLSMEDVLEILRIKLVGVIPEDQSVLRASNQGEPVILDINADAGKAYADTVERLLGEERPFRFIEEEKKGFLKRLFGG [P0AEZ3] ? 5.17

====

For each record, write down the corresponding total protein half-life in vivo.
Test: total protein half-life in vivo (active degradation + dilution); higher = more stable protein
Conditions: wild type E. coli NCM3722; growth: N-lim chemostat; doubling time 12 h
// units = h; emit number, no label

Which total protein half-life in vivo value belongs to "MSESLHLTRNGSILEITLDRPKANAIDAKTSFEMGEVFLNFRDDPQLRVAIITGAGEKFFSAGWDLKAAAEGEAPDADFGPGGFAGLTEIFNLDKPVIAAVNGYAFGGGFELALAADFIVCADNASFALPEAKLGIVPDSGGVLRLPKILPPAIVNEMVMTGRRMGAEEALRWGIVNRVVSQAELMDNARELAQQLVNSAPLAIAALKEIYRTTSEMPVEEAYRYIRSGVLKHYPSVLHSEDAIEGPLAFAEKRDPVWKGR" ? 5.66

Which total protein half-life in vivo value belongs to "MNIENLKTKAEADISEYITKKIIELKKKTGKEVTSIQFTAREKMTGLESYDVKINLI" ? 13.6

Which total protein half-life in vivo value belongs to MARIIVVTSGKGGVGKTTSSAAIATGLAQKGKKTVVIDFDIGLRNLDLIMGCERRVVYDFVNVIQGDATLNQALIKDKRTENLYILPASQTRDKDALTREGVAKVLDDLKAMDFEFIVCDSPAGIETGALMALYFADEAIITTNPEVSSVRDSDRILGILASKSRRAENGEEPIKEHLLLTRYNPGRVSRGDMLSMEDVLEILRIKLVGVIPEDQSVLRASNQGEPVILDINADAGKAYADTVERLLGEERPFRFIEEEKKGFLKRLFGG [P0AEZ3] ? 9.98

Which total protein half-life in vivo value belongs to "MIYIGLPQWSHPKWVRLGITSLEEYARHFNCVEGNTTLYALPKPEVVLRWREQTTDDFRFCFKFPATISHQAALRHCDDLVTEFLTRMSPLAPRIGQYWLQLPATFGPRELPALWHFLDSLPGEFNYGVEVRHPQFFAKGEEEQTLNRGLHQRGVNRVILDSRPVHAARPHSEAIRDAQRKKPKVPVHAVLTATNPLIRFIGSDDMTQNRELFQVWLQKLAQWHQTTTPYLFLHTPDIAQAPELVHTLWEDLRKTLPEIGAVPAIPQQSSLF" ? 5.52

Which total protein half-life in vivo value belongs to "MTKPYVRLDKNDAAVLLVDHQAGLLSLVRDIEPDKFKNNVLALGDLAKYFNLPTILTTSFETGPNGPLVPELKAQFPDTPYIARPGNINAWDNEDFVKAVKATGKKQLIIAGVVTEVCVAFPALSAIEEGFDVFVVTDASGTFNEITRHSAWDRLSQAGAQLMTWFGVACELHRDWRNDIEGLATLFSNHIPDYRNLMTSYDTLTKQK" ? 9.22

Which total protein half-life in vivo value belongs to MIIIRYLVRETLKSQLAILFILLLIFFCQKLVRILGAAVDGDIPANLVLSLLGLGVPEMAQLILPLSLFLGLLMTLGKLYTESEITVMHACGLSKAVLVKAAMILAVFTAIVAAVNVMWAGPWSSRHQDEVLAEAKANPGMAALAQGQFQQATNGSSVLFIESVDGSDFKDVFLAQIRPKGNARPSVVVADSGHLTQLRDGSQVVTLNQGTRFEGTALLRDFRITDFQDYQAIIGHQAVALDPNDTDQMDMRTLWNTDTDRARAELNWRITLVFTVFMMALMVVPLSVVNPRQGRVLSMLPAMLLYLLFFLIQTSLKSNGGKGKLDPTLWMWTVNLIYLALAIVLNLWDTVPVRRLRASFSRKGAV [P0AF98] ? 12.6

Which total protein half-life in vivo value belongs to MQFNIPTLLTLFRVILIPFFVLVFYLPVTWSPFAAALIFCVAAVTDWFDGFLARRWNQSTRFGAFLDPVADKVLVAIAMVLVTEHYHSWWVTLPAATMIAREIIISALREWMAELGKRSSVAVSWIGKVKTTAQMVALAWLLWRPNIWVEYAGIALFFVAAVLTLWSMLQYLSAARADLLDQ [P0ABF8] ? 9.62

====

Assay: total protein half-life in vivo (active degradation + dilution); higher = more stable protein
Conditions: E. coli NCM3722 delta-hslV; growth: N-lim chemostat; doubling time 6 h
test_readout: total protein half-life in vivo (h)
// units = h; emit number, no label

Which total protein half-life in vivo value belongs to "MSKSRLTVFSFVRRFLLRLMVVLAVFWGGGIALFSVAPVPFSAVMVERQVSAWLHGNFRYVAHSDWVSMDQISPWMGLAVIAAEDQKFPEHWGFDVASIEKALAHNERNENRIRGASTISQQTAKNLFLWDGRSWVRKGLEAGLTLGIETVWSKKRILTVYLNIAEFGDGVFGVEAAAQRYFHKPASKLTRSEAALLAAVLPNPLRFKVSSPSGYVRSRQAWILRQMYQLGGEPFMQQHQLD" ? 6.04

Which total protein half-life in vivo value belongs to MQKQAELYRGKAKTVYSTENPDLLVLEFRNDTSAGDGARIEQFDRKGMVNNKFNYFIMSKLAEAGIPTQMERLLSDTECLVKKLDMVPVECVVRNRAAGSLVKRLGIEEGIELNPPLFDLFLKNDAMHDPMVNESYCETFGWVSKENLARMKELTYKANDVLKKLFDDAGLILVDFKLEFGLYKGEVVLGDEFSPDGSRLWDKETLEKMDKDRFRQSLGGLIEAYEAVARRLGVQLD [P0A7D7] ? 4.79

Which total protein half-life in vivo value belongs to MIPLQHGLILAAILFVLGLTGLVIRRNLLFMLIGLEIMINASALAFVVAGSYWGQTDGQVMYILAISLAAAEASIGLALLLQLHRRRQNLNIDSVSEMRG [P0AFE4] ? 7.8

Which total protein half-life in vivo value belongs to "MIDTTLPLTDIHRHLDGNIRPQTILELGRQYNISLPAQSLETLIPHVQVIANEPDLVSFLTKLDWGVKVLASLDACRRVAFENIEDAARHGLHYVELRFSPGYMAMAHQLPVAGVVEAVIDGVREGCRTFGVQAKLIGIMSRTFGEAACQQELEAFLAHRDQITALDLAGDELGFPGSLFLSHFNRARDAGWHITVHAGEAAGPESIWQAIRELGAERIGHGVKAIEDRALMDFLAEQQIGIESCLTSNIQTSTVAELAAHPLKTFLEHGIRASINTDDPGVQGVDIIHEYTVAAPAAGLSREQIRQAQINGLEMAFLSAEEKRALREKVAAK" ? 4.41
